FYI, the data here is from PubChem BioAssay (Tox21).

biological target: Cytochrome P450 3A4 (Homo sapiens) (UniProt P08684); assay: Cytochrome P450 Family 3 Subfamily A Member 4 (CYP3A4) small molecule antagonists: luciferase reporter qHTS assay (AID 1671201); settings: P450-Glo CYP3A4 enzyme, luciferin luminescence, 1 h; series mostly up to 115 µM; also: nearly all actives have a fitted effect of over 50% in size
Sequence (P08684 whole entry, looked up): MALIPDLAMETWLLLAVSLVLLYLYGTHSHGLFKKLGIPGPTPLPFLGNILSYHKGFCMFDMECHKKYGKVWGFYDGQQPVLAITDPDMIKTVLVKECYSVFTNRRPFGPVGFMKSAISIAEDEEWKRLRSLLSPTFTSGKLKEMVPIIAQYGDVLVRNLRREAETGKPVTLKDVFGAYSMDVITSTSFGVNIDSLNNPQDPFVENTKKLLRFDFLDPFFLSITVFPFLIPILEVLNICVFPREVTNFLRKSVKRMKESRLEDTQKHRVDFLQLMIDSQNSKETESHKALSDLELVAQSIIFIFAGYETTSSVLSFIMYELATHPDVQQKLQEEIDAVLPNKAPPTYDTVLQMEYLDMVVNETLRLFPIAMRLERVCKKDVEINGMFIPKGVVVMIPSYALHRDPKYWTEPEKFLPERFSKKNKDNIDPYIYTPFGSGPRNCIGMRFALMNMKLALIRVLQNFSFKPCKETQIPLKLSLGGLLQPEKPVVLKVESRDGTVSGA
Records with an inconclusive call do not appear. Active and inactive are the calls of the source. Calls follow the shape of the dose curve; as a rule, active = well fitted inhibition curve with a large enough effect in the repeat runs; inconclusive = weak or mixed curves; inactive = no such curve, though single readings can be large or run the other way.
recorded_metric: Potency

Below, 8 compounds whose answers are already recorded.
IN: What does the record list as Potency for CC(C)(C)NC[C@H](O)c1ccc(O)cc1Cl ?
OUT: inactive

IN: Which value of Potency has been reported for CCCCCCCC(=O)Cl in the records?
OUT: inactive

IN: Fill in the blank: the reported Potency of Nc1c(Cl)c(F)nc(OCC(=O)O)c1Cl is ____.
OUT: inactive

IN: Would you mind telling me what Potency value was observed for C=CCCC#N ?
OUT: inactive

IN: Record request: Potency value, item CC(C)(C1CCC(O)CC1)C1CCC(O)CC1 (stereo not given)
OUT: inactive

IN: // returns reported Potency for input C=C(C)[C@H]1CN[C@H](C(=O)O)[C@H]1CC(=O)O
OUT: inactive

IN: Record request: Potency value, item ClC(Cl)(Cl)Cl
OUT: inactive

IN: What does the record list as Potency for O=C1C2CC=CCC2C(=O)N1SC(Cl)(Cl)Cl (stereo not given) ?
OUT: inactive

Please look at the following compound next.
IN: Recorded Potency of CC(C)(C)c1cc(O)ccc1O , please.
OUT: inactive
